Data credit: the Human Domainome abundance scans (Beltran et al. 2025)

B1: Proto-oncogene vav, residues 782 to 842; numbered along this chain, P15498 (parent)
chain: KYFGTAKARYDFCARDRSELSLKEGDIIKILNKKGQQGWWRGEIYGRVGWFPANYVEEDYS

Variants of: B1
assay comment: abundance fitness (aPCA) (normalised: wild type 0, dead -1); higher = more abundant; growth selection in yeast, the domain comes from the species named
condition description: Homo sapiens
measured property: abundance fitness
The answer should be written as a number, with no unit following it.

Solved entries (count: 2):
- mutation code: "G38W"
  test value: -0.928
- mutation code: "Y2E"
  test value: -0.238

I am curious: what abundance fitness value has been reported for `Q36D` ? -0.073

// lookup abundance fitness for `N54S` -0.054

What measured abundance fitness goes with `K7P` ? -0.97

Give the measured abundance fitness of `D26K` . -0.964

Record request: abundance fitness value, item `G25S` -0.818

Look at this variant and give its reported abundance fitness. `K33C` -0.732
